Molecular target: Ba/F3_KRAS^G12D cells (Homo sapiens, UniProt P01116, G12D, cells depend on it)
Sequence (P01116 whole entry G12D): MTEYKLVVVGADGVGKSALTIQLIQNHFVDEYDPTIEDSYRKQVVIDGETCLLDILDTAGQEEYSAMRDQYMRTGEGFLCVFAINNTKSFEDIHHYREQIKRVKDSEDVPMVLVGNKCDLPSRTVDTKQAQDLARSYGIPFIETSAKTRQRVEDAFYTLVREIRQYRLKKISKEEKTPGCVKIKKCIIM
Experiment: Ba/F3 KRAS^G12D cell proliferation assay (cell-titer Glo)
Assay type: cell-based
Details: cell growth inhibition, treated with the compounds for 3 days, read-out: BaF3_KRAS^G12D IC50
Reported values of GI50 for individual entries

Oc1cc(-c2nc(O)c3c(N4CC5CCC(C4)N5)nc(OC[C@@]45CCCN4C[C@H](F)C5)nc3c2F)c2c(Cl)c(F)ccc2c1 ... 500 to 5000 nM
Nc1cccc(F)c1-c1nc2nc(OCC34CCCN3CCC4)nc(N3CC4CCC(C3)N4)c2cc1Cl ... > 5000 nM
C#Cc1c(F)ccc2cc(O)cc(-c3nc(OC(C)C)c4c(N5CC6CCC(C5)N6)nc(N)nc4c3F)c12 ... 500 to 5000 nM

Q) What value of measured GI50 is listed for `CC(=O)N1CCN(c2nc(OC[C@@]34CCCN3C[C@H](F)C4)nc3c(F)c(-c4cc(O)cc5cccc(Cl)c45)ncc23)CC1` ?
A) > 5000 nM

Q) What value of measured GI50 is listed for `CN(C)CCCOc1nc(N2CC3CCC(C2)N3)c2cnc(-c3cccc4ccccc34)nc2c1Cl` ?
A) 500 to 5000 nM

Q) What value of measured GI50 is listed for `CN1CCC[C@H]1Cn1c(=O)nc(N2CCN[C@@H](CC#N)C2)c2cnc(-c3cc(O)cc4cccc(Cl)c34)c(F)c21` ?
A) > 5000 nM

Q) What value of measured GI50 is listed for `CCOc1nc(-c2cc(O)cc(F)c2C(F)(F)F)c(F)c2nc(OC[C@@]34CCCN3C[C@H](F)C4)nc(N3CC4CCC(C3)N4)c12` ?
A) 500 to 5000 nM
